# assay.conditions: human gut metagenome, 24 h, 2 µM; further: call rule not given here
recorded.endpoint: Bacterial Biotransformation

Below are worked cases with known answers.
CC(N)C12CC3CC(CC(C3)C1)C2 (centres undefined) [RIMANTADINE] : Compound NOT metabolized
OCCN(CCO)c1nc(N2CCCCC2)c2nc(N(CCO)CCO)nc(N3CCCCC3)c2n1 [DIPYRIDAMOLE] : Compound NOT metabolized
CCCCC(=O)O[C@]1(C(=O)CO)[C@@H](C)C[C@H]2[C@@H]3CCC4=CC(=O)C=C[C@]4(C)[C@@]3(F)[C@@H](O)C[C@@]21C [BETAMETHASONE VALERATE] : Compound NOT metabolized
CC(C)(C)NCC(O)c1cc(Cl)c(N)c(Cl)c1 (centres undefined) [CLENBUTEROL] : Compound NOT metabolized
CC(=O)OCC(=O)[C@@]1(OC(C)=O)[C@@H](C)C[C@H]2[C@@H]3C[C@H](F)C4=CC(=O)C=C[C@]4(C)[C@@]3(F)[C@@H](O)C[C@@]21C [DIFLORASONE DIACETATE] : Compound metabolized

Ask | Give the reported value of Bacterial Biotransformation for this record: CCCCCNC(=N)N/N=C/c1c[nH]c2ccc(OC)cc12.O=C(O)/C=C\C(=O)O [TEGASEROD MALEATE]
Reply | Compound NOT metabolized

Ask | Give the reported value of Bacterial Biotransformation for this record: N[C@@H](Cc1ccc(N(CCCl)CCCl)cc1)C(=O)O
Reply | Compound metabolized

Ask | Give the reported value of Bacterial Biotransformation for this record: Cc1nc(Nc2ncc(C(=O)Nc3c(C)cccc3Cl)s2)cc(N2CCN(CCO)CC2)n1 [DASATINIB ANHYDROUS]
Reply | Compound NOT metabolized

Ask | Give the reported value of Bacterial Biotransformation for this record: O=C([O-])C[C@H](O)C[C@H](O)/C=C/c1c(C2CC2)nc2ccccc2c1-c1ccc(F)cc1.O=C([O-])C[C@H](O)C[C@H](O)/C=C/c1c(C2CC2)nc2ccccc2c1-c1ccc(F)cc1.[Ca+2] [PITAVASTATIN CALCIUM]
Reply | Compound NOT metabolized

Ask | Give the reported value of Bacterial Biotransformation for this record: Nc1nc(NC2CC2)c2ncn([C@H]3C=C[C@@H](CO)C3)c2n1.Nc1nc(NC2CC2)c2ncn([C@H]3C=C[C@@H](CO)C3)c2n1.O=S(=O)(O)O [ABACAVIR SULFATE]
Reply | Compound metabolized

Ask | Give the reported value of Bacterial Biotransformation for this record: C[N+]12CCC(CC1)C(OC(=O)C(O)(c1ccccc1)c1ccccc1)C2.[Br-] (centres undefined) [CLIDINIUM BROMIDE]
Reply | Compound NOT metabolized
